Molecular target: rat C1a calcitonin receptor (rat) (UniProt P32214)
Assay: displacement of 125I-human calcitonin from C1a-HEK cell membranes
Numbered stars: 1 amine (or outer) side, 2 acyl side, 3 side chain; on linkers, the order of the positions; unused ones are H or OH. Side chains are listed from the residue outwards. Ends that are not written are not given here. γGlu = O=C(O)[C@H](CCC(=O)[*:2])N[*:1]
observed.property: IC50 (nM)
# output: bare number, implied unit nM

IC50 for KCNTATCALQK([γGlu-C16‑Chain])LAQELHRLQTYPRTNVGSNTY-NH2 (ends and bridges not checked) [Cmpd 193 ([K^11ε(γ-Glu(Nα-C16-Chain))]-Cmpd 17)] is 0.168

IC50 for KCNTATCALQRLAQELHRLQTYPRTNVGSNTY-NH2 (ends and bridges not checked) [Cmpd 17] is 0.095

IC50 for KCNTATCALQRLAQELHRLQTYPRTK([γGlu-C16‑Chain])VGSNTY-NH2 (ends and bridges not checked) [Cmpd 189 ([K^26ε-(γ-Glu(Nα-C16-Chain))]-Cmpd 17)] is 1.49

IC50 for KCNTATCALQRLAQELHRLQTYPK([γGlu-C16‑Chain])TNVGSNTY-NH2 (ends and bridges not checked) [Cmpd 188 ([K^24ε-(γ-Glu(Nα-C16-Chain))]-Cmpd 17)] is 0.898

IC50 for KCNTATCALQRLAQELHK([γGlu-C16‑Chain])LQTYPRTNVGSNTY-NH2 (ends and bridges not checked) [Cmpd 186 ([K^18ε-(γ-Glu(Nα-C16-Chain))]-Cmpd 17)] is 1.07

IC50 for KCNTATCALQRLAQELHRLQK([γGlu-C16‑Chain])YPRTNVGSNTY-NH2 (ends and bridges not checked) [Cmpd 187 ([K^21ε-(γ-Glu(Nα-C16-Chain))]-Cmpd 17)] is 0.151

IC50 for K([γGlu-C16‑Chain])KCNTATCALQRLAQELHRLQTYPRTNVGSNTY-NH2 (ends and bridges not checked) [Cmpd 195 (Kε-(γ-Glu(Nα-C16-Chain))-Cmpd 17)] is 0.046

IC50 for K([γGlu-C16‑Chain])CNTATCALQRLAQELHRLQTYPRTNVGSNTY-NH2 (ends and bridges not checked) [Cmpd 192 ([K^1ε-(γ-Glu(Nα-C16-Chain))]-Cmpd 17)] is 0.07

These entries and their values trace back to patent US20140249076A1.
